- TARGET: NS3-NS4 protease (full-length NS3/NS4A-2) (Hepatitis C virus genotype 1a, UniProt P27958)
- Construct: Recombinant E. coli or Baculovirus full-length NS3 was diluted to 3.33 μM with assay buffer; made in house; host or cells: E. coli or baculovirus (insect cells)
- Sequence (P27958 1027-1657): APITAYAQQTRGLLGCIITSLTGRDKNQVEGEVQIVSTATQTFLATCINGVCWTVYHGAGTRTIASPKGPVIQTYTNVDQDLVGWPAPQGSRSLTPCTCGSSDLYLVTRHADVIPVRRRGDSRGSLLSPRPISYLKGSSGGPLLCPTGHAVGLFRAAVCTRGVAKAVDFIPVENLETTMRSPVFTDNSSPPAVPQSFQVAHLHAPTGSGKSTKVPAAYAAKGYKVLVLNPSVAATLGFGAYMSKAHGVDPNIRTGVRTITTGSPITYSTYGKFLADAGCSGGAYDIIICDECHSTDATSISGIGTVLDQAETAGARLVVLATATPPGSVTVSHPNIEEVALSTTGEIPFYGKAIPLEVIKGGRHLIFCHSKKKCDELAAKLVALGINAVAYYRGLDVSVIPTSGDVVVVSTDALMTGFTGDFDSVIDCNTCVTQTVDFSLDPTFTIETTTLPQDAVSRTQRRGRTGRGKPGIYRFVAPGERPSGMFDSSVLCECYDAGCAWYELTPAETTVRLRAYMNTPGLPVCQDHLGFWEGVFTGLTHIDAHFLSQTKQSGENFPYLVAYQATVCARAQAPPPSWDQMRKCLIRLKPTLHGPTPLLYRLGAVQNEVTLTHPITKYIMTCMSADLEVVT
- ASSAY_NAME: NS3-NS4 protease assay / NS3 inhibition assay (RETS1 substrate, fluorescence kinetic read)
- Assay type: biochemical
- PROTOCOL_CONDITIONS: read-out: NS3-NS4 IC50
pIC50: −log10 of the molar value.
MEASUREMENT_LABEL: pIC50

Answer with reported pIC50 of CC(C)(C)OC(=O)NC1CCCCCC=CC2CC2(C(=O)NS(=O)(=O)c2cc(Cl)cc(Cl)c2)NC(=O)C2CCCN2C1=O (stereo not drawn)
> 5.00

Answer with reported pIC50 of `C[C@@H](NC(=O)O[C@@H]1C[C@H]2C(=O)N[C@]3(C(=O)NS(=O)(=O)C4CC4)C[C@H]3/C=C\CCCCC[C@H](NC(=O)OC(C)(C)C)C(=O)N2C1)c1ccc(F)cn1`
> 7.00

Answer with reported pIC50 of `COc1ccc(NS(=O)(=O)NC(=O)[C@@]23C[C@H]2/C=C\CCCCC[C@H](NC(=O)OC(C)(C)C)C(=O)N2CCC[C@H]2C(=O)N3)cc1`
> 7.00

Answer with reported pIC50 of `CCCNS(=O)(=O)NC(=O)[C@@]12C[C@H]1/C=C\CCCCC[C@H](NC(=O)OC(C)(C)C)C(=O)N1CCC[C@H]1C(=O)N2`
> 6.00

Answer with reported pIC50 of Cc1ccc(CC(=O)N[C@H]2CCCCC/C=C\[C@@H]3C[C@@]3(C(=O)NS(=O)(=O)C3CC3)NC(=O)C3CCCN3C2=O)cc1 (stereo partly drawn)
< 5.00

Answer with reported pIC50 of `CCNS(=O)(=O)NC(=O)[C@@]12C[C@H]1/C=C\CCCCC[C@H](NC(=O)OC(C)(C)C)C(=O)N1CCC[C@H]1C(=O)N2`
> 5.00
